For human MCH-1 receptor (Homo sapiens (Human), UniProt Q99705), measured log10 Ki is reported for the entries below.
Structures can show the parent of a compound that is named as a salt.
QUANTITY: log10 Ki (log10 of the value in nM)

>  <COMPOUND>
Cn1c2c(c3ccc(-n4ccc(OCc5ccc(C(F)(F)F)nc5)cc4=O)cc31)CN1CCC2CC1 [Example 7, hydrochloride]

>  <log10 Ki>
1.04

$$$$
>  <COMPOUND>
Cn1c2c(c3ccc(-n4ccc(-c5ccc(C(F)(F)F)cn5)cc4=O)cc31)CN1CCC2CC1 [Example 6, hydrochloride]

>  <log10 Ki>
2.09

$$$$
>  <COMPOUND>
Cn1c2c(c3ccc(-n4ccc(-c5ccc(C(F)(F)F)nn5)cc4=O)cc31)CN1CCC2CC1 [Example 5, hydrochloride]

>  <log10 Ki>
1.36

$$$$
>  <COMPOUND>
Cn1c2c(c3ccc(-n4ccc(OCc5ccccc5)cc4=O)cc31)CN1CCC2CC1 [Example 3, hydrochloride]

>  <log10 Ki>
0.77

$$$$
>  <COMPOUND>
Cn1c2c(c3ccc(-n4ccc(OCc5ccccc5)cc4=O)nc31)CN1CCC2CC1 [Example 8, hydrochloride]

>  <log10 Ki>
1.46

$$$$
>  <COMPOUND>
Cn1c2c(c3ccc(-n4ccc(OCc5ccccc5)cc4=O)cc31)CN1CCC2C1 (stereo not shown) [Example 2, hydrochloride]

>  <log10 Ki>
0.81

$$$$
>  <COMPOUND>
Cn1c2c(c3ccc(-n4ccc(OCc5ccc(F)cn5)cc4=O)cc31)CN1CCC2CC1 [Example 4, hydrochloride]

>  <log10 Ki>
1.64

$$$$
>  <COMPOUND>
Cn1c2c(c3ccc(-n4ccc(OCc5ccc(F)cc5F)cc4=O)nc31)CN1CCC2CC1 [Example 9, hydrochloride]

>  <log10 Ki>
1.18

$$$$
>  <COMPOUND>
Cn1c2c(c3ccc(-n4ccc(-c5ccc(C(F)(F)F)cc5)cc4=O)nc31)CN1CCC2CC1 [Example 10, hydrochloride]

>  <log10 Ki>
1.18

$$$$
>  <COMPOUND>
Cn1c2c(c3ccc(-n4ccc(OCc5ccc(F)cn5)cc4=O)nc31)CN1CCC2CC1 [Example 11, hydrochloride]

>  <log10 Ki>
1.40

$$$$
